// provenance: ChEMBL document CHEMBL6121044

- ASSAY_PROCEDURE: Efflux ratio of apparent permeability in human Caco-2 cells
- Type: ADME, cell-based
EXPERIMENTAL_ENDPOINT: efflux ratio

- [2H]C([2H])([2H])NC1=NC(=O)[C@]2(CCc3ncccc32)c2cc(C(C)(F)F)ccc21: 5.27

# ---- query molecule ----
-- ask Fill in reported efflux ratio for this entry: [2H]C([2H])([2H])NC1=NC(=O)[C@]2(CCc3ncccc32)c2cc(C(F)(F)F)ccc21
-- reply 1.95

====

Listing of entries alongside the reported fraction unbound.
- ASSAY_PROCEDURE: Plasma protein binding in mouse assessed as unbound fraction
- Format: ADME, cell-free

- [2H]C([2H])([2H])NC1=NC(=O)[C@]2(CCc3ncccc32)c2cc(C(C)(F)F)ccc21: 0.345

-- ask Fill in reported fraction unbound for this entry: [2H]C([2H])([2H])NC1=NC(=O)[C@]2(CCc3ncccc32)c2cc(C(F)(F)F)ccc21
-- reply 0.276

====

Listing of entries alongside the reported AUC(0-inf).
- ASSAY_PROCEDURE: AUCinf in beagle dog at 10 mg/kg, po measured upto 24 hrs upto 24 hrs by LC-MS/MS analysis
- Format: ADME, organism-based, Canis lupus familiaris
- SETTINGS: in vivo
Quick note: give the figure in µg·h/mL, leave out the unit.

* [2H]C([2H])([2H])NC1=NC(=O)[C@]2(CCc3ncccc32)c2cc(C(F)(F)F)ccc21 | 13.6

# ---- query compound ----
-- ask Fill in reported AUC(0-inf) for this entry: [2H]C([2H])([2H])NC1=NC(=O)[C@]2(CCc3ncccc32)c2cc(C(C)(F)F)ccc21
-- reply 12.3

====

- ASSAY_PROCEDURE: Apparent permeability across apical to basolateral in human Caco-2 cells
- Format: ADME, cell-based
- SETTINGS: read-out: permeability
EXPERIMENTAL_ENDPOINT: Papp A→B
Give the figure together with its unit, number first.

* [2H]C([2H])([2H])NC1=NC(=O)[C@]2(CCc3ncccc32)c2cc(C(C)(F)F)ccc21 | 5.12 ×10⁻⁶ cm/s

# ---- query compound ----
-- ask Fill in reported Papp A→B for this entry: [2H]C([2H])([2H])NC1=NC(=O)[C@]2(CCc3ncccc32)c2cc(C(F)(F)F)ccc21
-- reply 13.6 ×10⁻⁶ cm/s

====

- ASSAY_PROCEDURE: Hepatic metabolic stability in dog hepatocyte assessed as half life
- Type: ADME, cell-based, Canis lupus familiaris
- SETTINGS: hepatocytes
Listing of entries alongside the reported half-life.

• [2H]C([2H])([2H])NC1=NC(=O)[C@]2(CCc3ncccc32)c2cc(C(C)(F)F)ccc21 = > 3.61 h

-- ask Fill in reported half-life for this entry: [2H]C([2H])([2H])NC1=NC(=O)[C@]2(CCc3ncccc32)c2cc(C(F)(F)F)ccc21
-- reply > 3.61 h

====

- ASSAY_PROCEDURE: Solubility of the compound in FaSSGF
- Type: physicochemical
Listing of entries alongside the reported solubility.
Quick note: give the figure in µM, leave out the unit.

* [2H]C([2H])([2H])NC1=NC(=O)[C@]2(CCc3ncccc32)c2cc(C(F)(F)F)ccc21 | 30.9

# ---- query molecule ----
-- ask Fill in reported solubility for this entry: [2H]C([2H])([2H])NC1=NC(=O)[C@]2(CCc3ncccc32)c2cc(C(C)(F)F)ccc21
-- reply 79.9

====

- ASSAY_PROCEDURE: AUCinf in male ICR mouse at 10 mg/kg, po measured upto 24 hrs by LC-MS/MS analysis
- Format: ADME, organism-based
- SETTINGS: in vivo
EXPERIMENTAL_ENDPOINT: AUC(0-inf) (ng·h/mL)
Quick note: give the figure in ng·h/mL, leave out the unit.

* [2H]C([2H])([2H])NC1=NC(=O)[C@]2(CCc3ncccc32)c2cc(C(C)(F)F)ccc21 | 24900

# ---- query compound ----
-- ask Fill in reported AUC(0-inf) for this entry: [2H]C([2H])([2H])NC1=NC(=O)[C@]2(CCc3ncccc32)c2cc(C(F)(F)F)ccc21
-- reply 35800

====

- ASSAYED_TARGET: S-adenosylmethionine synthase isoform type-2 (Homo sapiens, UniProt P31153)
- Sequence (P31153 whole entry, canonical isoform): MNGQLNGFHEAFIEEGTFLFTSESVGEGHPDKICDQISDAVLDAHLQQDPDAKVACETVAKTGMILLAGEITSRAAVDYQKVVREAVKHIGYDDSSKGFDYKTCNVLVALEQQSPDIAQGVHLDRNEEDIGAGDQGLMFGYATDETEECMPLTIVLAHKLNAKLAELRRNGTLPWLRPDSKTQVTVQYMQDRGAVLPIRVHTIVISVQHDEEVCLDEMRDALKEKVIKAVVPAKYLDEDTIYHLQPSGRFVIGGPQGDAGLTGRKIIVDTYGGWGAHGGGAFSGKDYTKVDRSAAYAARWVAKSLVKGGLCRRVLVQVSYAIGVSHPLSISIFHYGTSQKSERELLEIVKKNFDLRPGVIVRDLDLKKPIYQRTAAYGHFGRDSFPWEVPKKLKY
- ASSAY_PROCEDURE: Inhibition of MAT2A (unknown origin) assessed as release of inorganic phosphate using ATP/L-methionine pre-incubated for 30 mins followed by substrate addition measured after 2.5 hrs by colorimetric assay
EXPERIMENTAL_ENDPOINT: pIC50
// pIC50 here means minus log10 of the molar concentration (mol/L)

-- ask State, for S-adenosylmethionine synthase isoform type-2 (Homo sapiens, UniProt P31153), measured pIC50 of the compound listed here: CNC1=NC(=O)C2(CCc3c(C#N)cccc32)c2nc(C(F)(F)F)ccc21 (stereo not given)
-- reply 7.74

-- ask State, for S-adenosylmethionine synthase isoform type-2 (Homo sapiens, UniProt P31153), measured pIC50 of the compound listed here: CNC1=NC(=O)C2(CCc3ncccc32)c2cc(OC(F)F)ccc21 (stereo not given)
-- reply 8.10

-- ask State, for S-adenosylmethionine synthase isoform type-2 (Homo sapiens, UniProt P31153), measured pIC50 of the compound listed here: CNC1=NC(=O)C2(CC(C)(C)c3ccccc32)c2nc(C(F)(F)F)ccc21 (stereo not given)
-- reply 7.11

-- ask State, for S-adenosylmethionine synthase isoform type-2 (Homo sapiens, UniProt P31153), measured pIC50 of the compound listed here: [2H]C([2H])([2H])NC1=NC(=O)[C@]2(CCc3ncccc32)c2cc(C3CC3)ccc21
-- reply 8.40

-- ask State, for S-adenosylmethionine synthase isoform type-2 (Homo sapiens, UniProt P31153), measured pIC50 of the compound listed here: Nc1nc(=O)n(-c2ccccc2Cl)c2nc(C(F)(F)F)ccc12 (single isomer, unassigned; atropisomer A)
-- reply 8.52

-- ask State, for S-adenosylmethionine synthase isoform type-2 (Homo sapiens, UniProt P31153), measured pIC50 of the compound listed here: CNC1=NC(=O)C2(CCc3ccc(F)cc32)c2nc(C(F)(F)F)ccc21 (stereo not given)
-- reply 7.26

-- ask State, for S-adenosylmethionine synthase isoform type-2 (Homo sapiens, UniProt P31153), measured pIC50 of the compound listed here: CNc1nc(=O)n(-c2ccccc2Cl)c2nc(C(F)(F)F)ccc12 (single isomer, unassigned; atropisomer 1)
-- reply 8.52

====

- ASSAY_PROCEDURE: Solubility of the compound in FaSSIF
- Format: physicochemical
Listing of entries alongside the reported solubility.
Quick note: give the figure in µM, leave out the unit.

-- ask Fill in reported solubility for this entry: [2H]C([2H])([2H])NC1=NC(=O)[C@]2(CCc3ncccc32)c2cc(C(C)(F)F)ccc21
-- reply 208

-- ask Fill in reported solubility for this entry: [2H]C([2H])([2H])NC1=NC(=O)[C@]2(CCc3ncccc32)c2cc(C(F)(F)F)ccc21
-- reply 207

====

- ASSAYED_TARGET: S-adenosylmethionine synthase isoform type-2 (Homo sapiens)
- ASSAY_PROCEDURE: Inhibition of MAT2A (unknown origin) assessed as release of inorganic phosphate using ATP/L-methionine pre-incubated for 30 mins followed by substrate addition measured after 2.5 hrs by colorimetric assay
EXPERIMENTAL_ENDPOINT: IC50 (nM)
Quick note: give the figure in nM, leave out the unit.

- CNC1=NC(=O)C2(CCc3ncccc32)c2cc(C3CC3)ccc21 (centres undefined): 6
- CNC1=NC(=O)C2(CCc3ncccc32)c2cc(C(F)(F)F)ccc21 (racemic): 11

-- ask State, for S-adenosylmethionine synthase isoform type-2 (Homo sapiens), measured IC50 of the compound listed here: CNC1=NC(=O)C2(CCCc3ccccc32)c2nc(C(F)(F)F)ccc21 (centres undefined)
-- reply 12

-- ask State, for S-adenosylmethionine synthase isoform type-2 (Homo sapiens), measured IC50 of the compound listed here: O=C1N=C(NCC(F)(F)F)c2ccc(C(F)(F)F)cc2C12CCc1ncccc12 (racemic)
-- reply 10

-- ask State, for S-adenosylmethionine synthase isoform type-2 (Homo sapiens), measured IC50 of the compound listed here: CNC1=NC(=O)C2(COc3ccccc32)c2nc(C(F)(F)F)ccc21 (centres undefined)
-- reply 115

-- ask State, for S-adenosylmethionine synthase isoform type-2 (Homo sapiens), measured IC50 of the compound listed here: CNC1=NC(=O)C2(CCc3ncccc32)c2cc(C(F)(F)C(F)(F)F)ccc21 (centres undefined)
-- reply 6

====

- ASSAY_PROCEDURE: AUCinf in male Sprague-Dawley rat at 2 mg/kg, iv measured upto 24 hrs upto 24 hrs by LC-MS/MS analysis
- Format: ADME, organism-based
- SETTINGS: male, Sprague-Dawley, in vivo
EXPERIMENTAL_ENDPOINT: AUC(0-inf) (ng·h/mL)
Quick note: give the figure in ng·h/mL, leave out the unit.

-- ask Fill in reported AUC(0-inf) for this entry: [2H]C([2H])([2H])NC1=NC(=O)[C@]2(CCc3ncccc32)c2cc(C(F)(F)F)ccc21
-- reply 4990
